Listing of entries alongside the reported Human T-cell Binding 0.2 uM (MFI).
# tested_on: T1, human CD8 alpha (CD8A) on primary human CD8+ T cells (human, UniProt P01732 22-235)
# T1 construct: whole, on cells; also called hCD8A
# procedure_text: flow cytometry, human CD8+ T cells, 0.2 uM FN3
Write the answer as a number in MFI, unit excluded.

>>> val("P282ER9P1360_H10 (designed binder, FN3 domain) LPAPKNLVVSRVTEDSARLSWTAPDAAFDSFEIYYPEWPFAGEAIGLPVPGSERSYDLTGLKPGTEYFVVIYGVKGGELSEPLTAQFTT")
506
>>> val("P283AR9P1362_E9 (designed binder, FN3 domain) LPAPKNLVVSRVTEDSARLSWVPSPWGFDSFLIQYQESEKVGEAIVLTVPGSERSYDLTGLKPGTEYTVSIYGVDVKYDIDSRPISSNPLSAIFTT")
2010
>>> val("P282CR9P1358_C5 (designed binder, FN3 domain) LPAPKNLVVSRVTEDSARLSWTAPDAAFDSFLIAYPEWPDSGEAIVLTVPGSERSYDLTGLKPGTEYAVFIWGVKGGPLSHPLSAIFTT")
511

Incoming: Answer with the recorded Human T-cell Binding 0.2 uM (MFI) of P282DR9P1359_F3 (designed binder, FN3 domain) LPAPKNLVVSRVTEDSARLSWTAPDAAFDSFYITYPEWPVQGEAIVLTVPGSERSYDLTGLKPGTEYWVIIYGVKGGTESEPLSAIFTT only.
Outgoing: 646
